# System: PC-3
# assay-info: Cytotoxicity against human PC3 cells
# Format: cell-based
Exercise: for every item that follows, state its recorded LC50.
Please state the figure in µM; there is no need to write the unit.

Param item = O=C(/C=C/c1ccc(CN(CCO)CCc2c[nH]c3ccccc23)cc1)NO [DACINOSTAT] ; retrieve measured LC50.
73.5

Param item = CC(C)C(/C=C/c1ccccc1)n1cc(/C=C/C(=O)NO)nn1 (centres undefined) ; retrieve measured LC50.
46.5

###

# System: 786-0
# assay-info: Cytotoxicity against human 786-0 cells
# Type: cell-based
readout: LC50
# answer = value followed by unit

Param item = CC(C)C(/C=C/c1ccccc1)n1cc(/C=C/C(=O)NO)nn1 (centres undefined) ; retrieve measured LC50.
6.74 µM

Param item = O=C(/C=C/c1cn(C(/C=C/c2ccccc2)Cc2ccccc2)nn1)NO (centres undefined) ; retrieve measured LC50.
6.45 µM

Param item = O=C(/C=C/c1ccc(CN(CCO)CCc2c[nH]c3ccccc23)cc1)NO [DACINOSTAT] ; retrieve measured LC50.
52.4 µM

Param item = CC(/C=C/c1ccccc1)n1cc(/C=C/C(=O)NO)nn1 (centres undefined) ; retrieve measured LC50.
9.03 µM
